Hey, just so you know, these numbers are from the RNAGym collection of RNA variant scans (doi:10.7554/elife.90254).

B1: LINE1-full (parent)
chain: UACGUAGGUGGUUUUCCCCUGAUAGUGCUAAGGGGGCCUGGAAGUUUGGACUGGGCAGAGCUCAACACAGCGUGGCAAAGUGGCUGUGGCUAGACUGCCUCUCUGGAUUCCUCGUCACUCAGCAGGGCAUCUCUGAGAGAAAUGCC

Variants of: B1
test: self-cleavage, relative activity (ratio to wild type); higher = more cleavage; in vitro, sequencing; the parent is a self-cleaving ribozyme
// no strictly below 1 in self-cleavage; yes otherwise

1) U47A G106C
yes
2) U23A A77U
yes
3) U85C C99A
no
4) A22U A129G
yes
5) U9C G34U
yes
6) C18U U96A
no
7) A64U A121U
no
8) C56A U134C
no
9) U12C U104A
yes
